- System: A549 NSCLC
- procedure_details: NCI tumour cell line growth inhibition, 48 h
Task for the reader: assign each of the following molecules its reported GI50.

Data request: I have this molecule here, CC(C)=CC(=O)N[C@H]1CC[C@]2(C)C3CC[C@]4(C)C(C(C)N(C)C)=CCC4C3CCC2[C@H]1O (stereo not given in full) , and I need its recorded GI50.
Data returned: 5920 nM

Data request: I have this molecule here, O=C(Nc1ccc(F)cc1)Nc1ccc(Br)c(C(F)(F)F)c1 , and I need its recorded GI50.
Data returned: 2340 nM

Data request: I have this molecule here, Cn1nc(C(F)(F)F)c(-c2cc(C(F)(F)F)cc(C(F)(F)F)c2)c1-c1ccc(OCc2ccc(Cl)cc2)cc1O , and I need its recorded GI50.
Data returned: 3180 nM

Data request: I have this molecule here, CCCCCCCCCCCCCC[n+]1ccc(C(N)=O)cc1 , and I need its recorded GI50.
Data returned: 2400 nM

Data request: I have this molecule here, CC(=O)O[C@H]1C(=O)[C@@]2(C)[C@H]([C@H](OC(=O)c3ccccc3)[C@]3(O)C[C@H](OC(=O)[C@H](OC(=O)OC[C@H]4COC(C)(C)O4)[C@@H](NC(=O)c4ccccc4)c4ccccc4)C(C)=C1C3(C)C)[C@]1(OC(C)=O)CO[C@@H]1C[C@@H]2O , and I need its recorded GI50.
Data returned: 29.5 nM

Data request: I have this molecule here, CO[C@H]1C[C@](C)(O)Cc2cc3c(c(O)c21)C(=O)c1c(O)cc2c(c1C3=O)O[C@@H]1O[C@@]2(C)[C@H](O)[C@@H](N(C)C)[C@@H]1O , and I need its recorded GI50.
Data returned: 139 nM

Data request: I have this molecule here, O=C1C(=O)c2ccccc2C(O)=C1CCCc1ccc(C2CCCCC2)cc1 , and I need its recorded GI50.
Data returned: 3930 nM

Data request: I have this molecule here, CCC1(OC(=O)CN)C(=O)OCc2c1cc1n(c2=O)Cc2cc3ccccc3nc2-1 (stereo not given) , and I need its recorded GI50.
Data returned: 47.2 nM

Data request: I have this molecule here, Clc1ccc2nc(CI)c(CI)nc2c1 , and I need its recorded GI50.
Data returned: 17800 nM

Data request: I have this molecule here, COc1ccc(/C(C#N)=C/c2cc(OC)c(OC)c(OC)c2)cc1 , and I need its recorded GI50.
Data returned: 23600 nM

---

- System: UO-31 renal
- procedure_details: NCI tumour cell line growth inhibition, 48 h
Task for the reader: assign each of the following molecules its reported TGI.
Only the number, expressed in µM, is required.

Data request: I have this molecule here, CCOc1ccc(NCC2CC/C(=C\c3ccccc3OC)C2=O)cc1 (configuration not stated) , and I need its recorded TGI.
Data returned: 26.2

Data request: I have this molecule here, O=C(CN1CCCCC1)Nc1ccc2c(c1)C1Oc3ccccc3CC1CO2 (configuration not stated) , and I need its recorded TGI.
Data returned: 72.7

Data request: I have this molecule here, O=C(Nc1ccc(F)cc1)Nc1ccc(Br)c(C(F)(F)F)c1 , and I need its recorded TGI.
Data returned: 10.6

Data request: I have this molecule here, C[C@]12CC[C@H]3[C@@H](CC4SC(N)=NC45C/C(=N/NC(N)=O)CC[C@]35C)[C@@H]1CCC2=O (some centres not stated) , and I need its recorded TGI.
Data returned: 2.88

Data request: I have this molecule here, C=C1C(=O)O[C@H]2[C@H]1CC/C(COC(=O)OC/C1=C/CC[C@@]3(C)O[C@H]3[C@H]3OC(=O)[C@@H](CN(C)C)[C@@H]3CC1)=C\CC[C@@]1(C)O[C@@H]21 , and I need its recorded TGI.
Data returned: 2.25

Data request: I have this molecule here, CCCCc1ccc(Nc2nc(Cl)c3ccn(C4CC(Oc5ccc(C)cc5)C(COc5ccc(C)cc5)O4)c3n2)cc1 (configuration not stated) , and I need its recorded TGI.
Data returned: 31.2

Data request: I have this molecule here, C=C1C(=O)O[C@H]2[C@H]1CC/C(COC(=O)CCCc1c[nH]c3ccccc13)=C\CC[C@@]1(C)O[C@@H]21 , and I need its recorded TGI.
Data returned: 2.73

Data request: I have this molecule here, Nc1nc2cc(CC[C@H]3C[C@@H](n4ccc5c(N)ncnc54)[C@H](O)[C@@H]3O)ccc2cc1Br , and I need its recorded TGI.
Data returned: 18

Data request: I have this molecule here, O=[N+]([O-])/C=C(\CS(=O)(=O)c1ccccc1)c1ccc2c(c1)OCO2 , and I need its recorded TGI.
Data returned: 98.7
